# EXPERIMENTAL TARGET: T1, human CD73 protein (ACRO Biosystems, Cat No. CD3-H52H7) (human, UniProt P21589 27-547)
# T1 construct: Bought protein; also called recombinant CD73 protein; recombinant CD73
# T1 sequence: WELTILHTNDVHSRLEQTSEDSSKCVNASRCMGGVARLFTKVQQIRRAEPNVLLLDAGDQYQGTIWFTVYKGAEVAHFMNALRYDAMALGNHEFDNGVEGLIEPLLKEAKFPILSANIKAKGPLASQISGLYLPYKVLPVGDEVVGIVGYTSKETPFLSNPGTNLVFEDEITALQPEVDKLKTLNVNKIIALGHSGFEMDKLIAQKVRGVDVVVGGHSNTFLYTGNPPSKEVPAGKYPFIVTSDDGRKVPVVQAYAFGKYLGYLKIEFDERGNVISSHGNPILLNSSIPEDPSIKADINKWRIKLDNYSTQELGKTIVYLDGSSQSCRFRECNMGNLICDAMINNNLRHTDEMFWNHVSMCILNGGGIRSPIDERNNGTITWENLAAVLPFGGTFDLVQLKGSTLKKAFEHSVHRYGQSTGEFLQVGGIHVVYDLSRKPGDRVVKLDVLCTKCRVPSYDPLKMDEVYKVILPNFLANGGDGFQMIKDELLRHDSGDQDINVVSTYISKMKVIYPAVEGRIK
# PROTOCOL: SPR (Biacore T200), antibody captured on protein A chip, CD73 as analyte, 1:1 model
What pKd was measured for each of the following?
Give bare numbers, as −log10 of the molar value.

Exercise: I am curious: what pKd value has been reported for 900696 (antibody, V domains shown, Constant regions are not restated) VH: QVQLVESGGGLVKPGGSLRLSCAASGFTFSKYAMSWIRQAPGKGLEWVAEISSGGGYINYADSVKGRFTISRDNAKNSLYLQMNSLRAEDTAVYYCARAIYYYGSSYNYYAMDYWGQGTTVTVSS VL: DIQMTQSPSSLSASVGDRVTITCRASQDVGTAEAWYQQKPGKAPKLLIYWASTLQSGVPSRFSGSGSGTDFTLTISSLQPEDFATYYCQQYSSYPLTFGQGTKLEIK ?
Key: 8.37

Consider the record given below.
Exercise: I am curious: what pKd value has been reported for 900581 (antibody, human IgG1, V domains shown) VH: EVQLVESGGGLVKPGGSLKLSCAASGFTFSKYAMSWVRQSPEKRLEWVAEISSGGGYINYPDTVTGRFTISRDNAKNTLYLEMSSLRSGDTAMYYCARAIYYYGSSYNYYAMDYWGQGTSVTVSS VL: DIVMTQSHKFMSTSVGDRVSITCKASQDVGTAEAWYQQKPGQSPKLLIYWASTRHTGVPDRFTGSGSGTDFTLTIGNVQSEDLADYFCQQYSSYPLTFGGGTKLEIK ?
Key: 8.78
